Examples of molecules with documented Activity follow.
target: RAF proto-oncogene serine/threonine-protein kinase (Homo sapiens) (UniProt P04049); assay: Inhibition of Raf1 at 10 uM; design: scale not given: the % may be the effect or the level left
Sequence (P04049 whole entry): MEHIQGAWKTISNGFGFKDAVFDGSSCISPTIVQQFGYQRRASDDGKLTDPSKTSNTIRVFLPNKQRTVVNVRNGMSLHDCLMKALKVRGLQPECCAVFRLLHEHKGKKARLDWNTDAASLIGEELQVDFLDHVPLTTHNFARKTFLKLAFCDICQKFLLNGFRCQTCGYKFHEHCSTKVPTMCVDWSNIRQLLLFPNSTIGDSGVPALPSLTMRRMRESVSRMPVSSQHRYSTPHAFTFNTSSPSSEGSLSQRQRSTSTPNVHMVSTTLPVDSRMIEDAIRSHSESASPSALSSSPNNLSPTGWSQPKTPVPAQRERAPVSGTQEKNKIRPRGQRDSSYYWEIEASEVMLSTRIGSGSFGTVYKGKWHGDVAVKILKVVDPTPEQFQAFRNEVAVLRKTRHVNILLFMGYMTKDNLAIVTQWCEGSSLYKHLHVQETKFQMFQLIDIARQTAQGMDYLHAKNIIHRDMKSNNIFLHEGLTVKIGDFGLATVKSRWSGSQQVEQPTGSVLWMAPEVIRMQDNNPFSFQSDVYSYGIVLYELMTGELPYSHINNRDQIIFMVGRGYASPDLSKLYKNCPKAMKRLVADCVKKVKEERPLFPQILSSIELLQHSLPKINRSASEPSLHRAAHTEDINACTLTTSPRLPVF
Experimental endpoint: Activity

1. O=C(Nc1ccc(Cl)cc1)c1ccnn1CCc1noc2ccccc12 : > 30%
2. O=C(Nc1ccc(Cl)cc1)c1ccnn1CCc1ccncc1 : > 30%
3. O=C(Nc1ccc(OCc2ccccc2)cc1)c1ccnn1CCc1ccncc1 : > 30%
4. O=C(Nc1ccc(Cl)cc1)c1cc2ccccc2n1CCc1ccncc1 : > 30%
5. O=C(Nc1ccc(C(F)(F)F)cc1)c1nccn1CCc1ccncc1 : > 30%
6. O=C(Nc1ccc(-c2ccccc2)cc1)c1ccnn1CCc1ccncc1 : > 30%
7. O=C(Nc1ccc(Cl)cc1)c1ccnn1CCc1cccnc1 : > 30%
8. O=C(Nc1ccc(OC(F)(F)F)cc1)c1ccnn1CCc1ccncc1 : > 30%
9. O=C(Nc1ccc(C(F)(F)F)c(Cl)c1)c1nnnn1CCc1ccncc1 : > 30%
10. Cc1nn(CCc2ccncc2)c(C(=O)Nc2ccc(Cl)cc2)c1C : > 30%
11. O=C(Nc1ccc(Cl)cc1)c1ccnn1CCc1cnoc1 : > 30%

Every entry's value here was drawn from ChEMBL document CHEMBL1148870.
